Data origin, for the record: BindingDB's records for doi:10.1002/prot.21207

Assay system: Methionine aminopeptidase (Escherichia coli (strain K12))
Sequence (P0AE18 whole entry): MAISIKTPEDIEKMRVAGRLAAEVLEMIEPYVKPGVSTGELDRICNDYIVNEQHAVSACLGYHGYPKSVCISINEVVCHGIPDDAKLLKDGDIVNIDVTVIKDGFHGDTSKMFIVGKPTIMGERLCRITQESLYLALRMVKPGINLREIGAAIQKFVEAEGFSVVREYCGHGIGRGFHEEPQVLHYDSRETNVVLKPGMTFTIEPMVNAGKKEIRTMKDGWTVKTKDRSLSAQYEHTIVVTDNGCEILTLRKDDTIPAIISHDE
Method notes: EcMAP Enzyme Inhibition Assay
Condition set: pH 7.5; 30 °C
Readout kind: IC50 (nM)
Please respond with the number in nM and leave the unit unwritten.

In the examples that follow, each entry is paired with its recorded IC50.
INSERT INTO measurements (compound, units_text, result) VALUES
  ('Cc1c(Cl)cccc1NN=c1c(=N)nnc1=N', 'nM', 550),
  ('COc1ccc(NN=c2c(=N)nnc2=N)cc1', 'nM', 1500),
  ('N=c1nnc(=N)c1=NNc1ccc(Cl)cc1', 'nM', 1250);

Ask: Give recorded IC50 with Methionine aminopeptidase (Escherichia coli (strain K12)) for the following compound: N=c1nnc(=N)c1=NNc1cccc(F)c1
Reply: 550

Ask: Next up: N=c1nnc(=N)c1=NNc1cccc(C(=O)O)c1O
Reply: 2000
